Where these numbers come from: patent US11040981B2

Molecular target: FLT3 (Homo sapiens, UniProt P36888)
Sequence (P36888 27-993, species assumed): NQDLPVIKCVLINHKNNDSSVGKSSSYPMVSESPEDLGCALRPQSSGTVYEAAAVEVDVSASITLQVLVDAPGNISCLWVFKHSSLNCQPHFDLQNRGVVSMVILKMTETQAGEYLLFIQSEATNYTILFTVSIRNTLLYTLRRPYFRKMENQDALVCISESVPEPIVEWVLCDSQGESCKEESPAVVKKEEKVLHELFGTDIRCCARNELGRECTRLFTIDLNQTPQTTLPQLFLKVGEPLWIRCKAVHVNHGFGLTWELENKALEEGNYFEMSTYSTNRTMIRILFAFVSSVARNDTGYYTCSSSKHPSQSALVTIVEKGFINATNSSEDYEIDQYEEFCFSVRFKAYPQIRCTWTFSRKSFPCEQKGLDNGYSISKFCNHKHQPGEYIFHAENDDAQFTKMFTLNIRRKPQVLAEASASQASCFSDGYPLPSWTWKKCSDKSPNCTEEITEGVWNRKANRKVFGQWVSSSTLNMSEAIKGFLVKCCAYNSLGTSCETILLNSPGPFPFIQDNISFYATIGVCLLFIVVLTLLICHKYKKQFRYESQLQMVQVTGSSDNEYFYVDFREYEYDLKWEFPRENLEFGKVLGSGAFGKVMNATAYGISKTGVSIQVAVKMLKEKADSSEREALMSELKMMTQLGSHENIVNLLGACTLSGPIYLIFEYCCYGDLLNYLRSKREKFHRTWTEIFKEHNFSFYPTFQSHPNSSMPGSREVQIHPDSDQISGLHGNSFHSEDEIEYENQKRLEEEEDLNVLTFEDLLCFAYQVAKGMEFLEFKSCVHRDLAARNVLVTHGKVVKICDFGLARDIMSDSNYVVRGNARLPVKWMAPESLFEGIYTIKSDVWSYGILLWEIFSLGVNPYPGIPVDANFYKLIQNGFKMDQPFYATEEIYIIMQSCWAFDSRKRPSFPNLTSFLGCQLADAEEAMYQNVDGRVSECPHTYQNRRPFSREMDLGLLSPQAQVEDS
Assay: TR-FRET kinase activity assay, FLT3
Format: biochemical
Details: ATP at Km, 60 minutes
Protocol: IC50 values for compound inhibition of AXL, FLT3, MERTK and TYRO3 activity were determined by using a TR-FRET activity assay. […] Activity assays were performed in a 384-well, small volume, black microplates in an active enzyme volume of 10 μL and final developed volume of 20 μL. […] Plates are read in a Pherastar plate reader. Data is analyzed in GraphPad PRISM. […]
readout.kind: IC50

smiles_text=C[C@@H](COC(F)F)Nc1ncc2c(-c3ccnc(N4CCOCC4)c3)cc([C@H]3CC[C@H](O)CC3)n2n1 readout_kind=IC50 obs_value="≤ 100 nM"
smiles_text=COC[C@H](C)Nc1ncc2c(C3=C[C@@H]4CC[C@H](C3)N4C(=O)N3CCOCC3)cc([C@H]3CC[C@H](O)CC3)n2n1 readout_kind=IC50 obs_value="100 to 1000 nM"
smiles_text=COC[C@H](C)Nc1ncc2c(C#N)cc([C@H]3CC[C@H](O)CC3)n2n1 readout_kind=IC50 obs_value="1000 to 10000 nM"
smiles_text=COC[C@H](C)Nc1ncc2c(-c3cnn(Cc4cnc(C)cn4)c3)cc([C@H]3CC[C@H](O)CC3)n2n1 readout_kind=IC50 obs_value="100 to 1000 nM"
smiles_text=COC[C@H](C)Nc1ncc2c(-c3cnn(C4(C(=O)NC(C)C)CC4)c3)cc([C@H]3CC[C@H](O)CC3)n2n1 readout_kind=IC50 obs_value="1000 to 10000 nM"
smiles_text=COC[C@H](C)Nc1ncc2c(-c3ccnc(NC4CCOCC4)c3)cc([C@H]3CC[C@H](O)CC3)n2n1 readout_kind=IC50 obs_value="100 to 1000 nM"
smiles_text=C[C@@H](CC(F)(F)F)Nc1ncc2c(-c3cnn([C@H]4CCOC4)c3)cc([C@H]3CC[C@H](O)CC3)n2n1 readout_kind=IC50 obs_value="≤ 100 nM"
smiles_text=CCS(=O)(=O)N1CC(CC#N)(n2cc(-c3cc([C@H]4CC[C@H](O)CC4)n4nc(N[C@@H](C)COC)ncc34)cn2)C1 readout_kind=IC50 obs_value="1000 to 10000 nM"
smiles_text=COC[C@H](C)Nc1ncc2c(-c3ccnc(C)c3)cc([C@H]3CC[C@@H](O)CC3)n2n1 readout_kind=IC50 obs_value="1000 to 10000 nM"
smiles_text=COC[C@H](C)Nc1ncc2c(-c3cccc4c3CNC4=O)cc([C@H]3CC[C@H](O)CC3)n2n1 readout_kind=IC50 obs_value="1000 to 10000 nM"
smiles_text=COC[C@H](C)Nc1ncc2c(-c3ccnc(N4CCOCC4)c3)cc([C@H]3CC[C@H](O)CC3)n2n1 readout_kind=IC50 obs_value="≤ 100 nM"
smiles_text=COC[C@H](C)Nc1ncc2c(-c3ccnc(N4CCOC4=O)c3)cc([C@H]3CC[C@H](O)CC3)n2n1 readout_kind=IC50 obs_value="1000 to 10000 nM"
smiles_text=COC[C@H](C)Nc1ncc2c(-c3cnn(C(C)(C)C(=O)N4C[C@H](C)O[C@@H](C)C4)c3)cc([C@H]3CC[C@H](O)CC3)n2n1 readout_kind=IC50 obs_value="1000 to 10000 nM"
smiles_text=COC[C@H](C)Nc1ncc2c(C3=C[C@@H]4CC[C@H](C3)N4CC(F)(F)F)cc([C@H]3CC[C@H](O)CC3)n2n1 readout_kind=IC50 obs_value="100 to 1000 nM"
